Target: Heat shock factor protein 1 (Mus musculus, UniProt P38532)
Sequence (P38532 whole entry): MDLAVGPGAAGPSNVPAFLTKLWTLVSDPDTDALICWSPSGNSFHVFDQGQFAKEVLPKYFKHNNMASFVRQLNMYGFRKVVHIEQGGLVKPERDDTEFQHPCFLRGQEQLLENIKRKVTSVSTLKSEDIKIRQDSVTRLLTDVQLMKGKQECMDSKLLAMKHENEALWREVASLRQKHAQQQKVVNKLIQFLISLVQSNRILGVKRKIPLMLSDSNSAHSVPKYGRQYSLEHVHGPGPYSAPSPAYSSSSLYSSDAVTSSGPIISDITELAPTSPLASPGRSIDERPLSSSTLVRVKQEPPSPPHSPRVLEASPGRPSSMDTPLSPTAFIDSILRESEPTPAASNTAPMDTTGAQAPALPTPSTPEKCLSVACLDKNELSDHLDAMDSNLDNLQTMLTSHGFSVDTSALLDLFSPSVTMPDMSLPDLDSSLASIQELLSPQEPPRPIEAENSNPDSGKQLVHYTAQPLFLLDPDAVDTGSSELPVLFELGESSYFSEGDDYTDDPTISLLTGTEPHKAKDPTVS
Assay: decrease of HSF1-responsive luciferase luminescence – cell-based, NIH3T3, dose retest, confirmation (AID 2382);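 further: NIH3T3 fibroblasts with HSF1-driven luciferase reporter stressed by proteasome inhibitor MG132; luminescence from HSF1-driven luciferase expression after 8 hours of MG132 stress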
Assay type: functional
Calls of active or inactive are those of the source.
Reported EC50 values for the following compounds.
quantity: EC50

> print(dat)
                                    compound            resultvalue
 1  COc1cc(OC)c2c(c1)OCC1CON(C)C21 (configuration not stated)  > 195 µM (not active)
 2        S=C(Nc1ccc(Nc2ccccc2)cc1)NN1CCOCC1  > 195 µM (not active)
 3           O=S(=O)(c1ccccc1)N1CN2CCN(C2)C1  > 195 µM (not active)
 4        CCOC(=O)c1cnn(-c2ccccc2)c1-n1cccc1  > 195 µM (not active)
 5  Nc1nc(Cl)nc2c1ncn2C1CC(O)C(CO)O1 (configuration not stated)       79.9 µM (active)
 6          O=C(CCCc1ccccc1)c1ccc2c(c1)OCCO2     < 0.16 µM (active)
 7      CC(C)(C)c1ccc(C(=O)NC(=S)N2CCCC2)cc1  > 195 µM (not active)
 8  CCCN(Cc1ccccc1)C(=S)NC(=O)c1ccccc1[N+](=O)[O-]  > 195 µM (not active)
 9  CC1C/C(=N/Nc2nc3ccccc3[nH]2)CC(C)(C)C1 (configuration not stated)  > 195 µM (not active)
10        O=Cc1c(-c2ccc(Cl)cc2)oc2ccc(O)cc12         18 µM (active)
11           Cc1ccc(/C(O)=C/C=N/c2ccccn2)cc1       4.24 µM (active)
12  O=C(Nc1nnc(S(=O)(=O)N2CCCCCC2)s1)c1cccc(Br)c1  > 195 µM (not active)

* * *

Reported IC50 values for the following compounds.
biological target: Protein Wnt-3a (Mus musculus); assay: antagonism of Wnt3a pathway luciferase reporter – Wnt-LIGHT cells, luminescence, selectivity assay for Gli-SUFU antagonist project, dose response (AID 651570); format: functional; settings: read-out: IC50_Mean;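 further: Wnt-LIGHT reporter cells stimulated with conditioned medium from Wnt3a-producing cells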
Sequence (P27467 whole entry): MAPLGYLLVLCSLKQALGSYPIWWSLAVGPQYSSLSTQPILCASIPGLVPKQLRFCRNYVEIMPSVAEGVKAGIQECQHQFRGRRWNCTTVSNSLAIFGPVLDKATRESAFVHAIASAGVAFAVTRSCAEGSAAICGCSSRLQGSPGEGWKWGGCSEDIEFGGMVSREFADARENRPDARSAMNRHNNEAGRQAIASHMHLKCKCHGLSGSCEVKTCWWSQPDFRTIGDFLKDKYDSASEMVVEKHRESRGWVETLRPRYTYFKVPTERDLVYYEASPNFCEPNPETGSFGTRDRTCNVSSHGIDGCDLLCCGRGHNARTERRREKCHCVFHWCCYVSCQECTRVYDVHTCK
The source made the active and inactive calls.
quantity: IC50

> print(dat)
                                   compound  quantity        resultvalue
1   CNc1ccccc1C(C)(C)c1cc(-c2cccc(Br)c2)no1      IC50    1.8 µM (active)
2  CC1CN(S(=O)(=O)c2ccc(C(=O)Nc3nc(-c4cc5ccccc5o4)cs3)cc2)CC(C)O1 (stereo not given)      IC50   1.28 µM (active)
3  CCC(C)[C@H]1CN=C(N)N1CCc1cccc2ccccc12 (stereo not given in full)      IC50   6.06 µM (active)
4  NC(=O)c1c(-c2ccc(Cl)cc2Cl)csc1NC(=O)Cc1ccccc1      IC50   1.91 µM (active)
5  CC(C)CC(NC(=O)CCCNC(=O)CCC(=O)OC1O[C@H]2OC3(C)CC[C@H]4[C@H](C)CCC(C1C)C24OO3)C(=O)O (stereo not given in full)      IC50  0.304 µM (active)

Every entry's value here was drawn from ChEMBL document CHEMBL1201862.
